Recorded MIC for the following molecules
- System: Streptococcus pneumoniae
- ASSAY: In vitro inhibitory activity against Streptococcus pneumoniae (EryRi 030SJ5i)
- Assay type: functional
The reply should contain only the number, in µg/mL.

MOLECULE	SYSTEM_TESTED	EXPERIMENTAL_ENDPOINT	UNIT_TEXT	ASSAY_VALUE
CC[C@H]1OC(=O)[C@H](C)C(=O)[C@H](C)[C@@H](O[C@@H]2O[C@H](C)C[C@H](N(C)C)[C@H]2O)[C@](C)(OC)C[C@@H](C)/C(=N\OC2CCCN(CCCC3CCCCC3)C2)[C@H](C)[C@@H](O)[C@]1(C)O (stereo not given in full)	Streptococcus pneumoniae	MIC	µg/mL	0.15
CC[C@H]1OC(=O)[C@H](C)C(=O)[C@H](C)[C@@H](O[C@@H]2O[C@H](C)C[C@H](N(C)C)[C@H]2O)[C@](C)(OC)C[C@@H](C)/C(=N\OCc2c(C)cc(C)cc2C)[C@H](C)[C@@H](O)[C@]1(C)O	Streptococcus pneumoniae	MIC	µg/mL	5
CC[C@H]1OC(=O)[C@H](C)[C@@H](O[C@H]2C[C@@](C)(OC)[C@@H](O)[C@H](C)O2)[C@H](C)[C@@H](O[C@@H]2O[C@H](C)C[C@H](N(C)C)[C@H]2O)[C@](C)(OC)C[C@@H](C)C(=O)[C@H](C)[C@@H](O)[C@]1(C)O	Streptococcus pneumoniae	MIC	µg/mL	40
CC[C@H]1OC(=O)[C@H](C)C(=O)[C@H](C)[C@@H](O[C@@H]2O[C@H](C)C[C@H](N(C)C)[C@H]2O)[C@](C)(OC)C[C@@H](C)C(=O)[C@H](C)[C@H]2N(NCCCc3cccc(Cl)c3)C(=O)O[C@]12C	Streptococcus pneumoniae	MIC	µg/mL	0.08

Below: the item to evaluate.
Problem: // query MIC value for entry `CCCNCCO/N=C1\[C@H](C)C[C@@](C)(OC)[C@H](O[C@@H]2O[C@H](C)C[C@H](N(C)C)[C@H]2O)[C@@H](C)C(=O)[C@@H](C)C(=O)O[C@H](CC)[C@@](C)(O)[C@H](O)[C@H]1C`
Solution: 1.2

---

- Tested on: Mus musculus
- ASSAY: In Vivo evaluation for its effective dose against Staphylococcus aureus (011GO25 EryRi.
- Type: functional
Recorded ED50 for the following compounds

COMPOUND	ED50
CC[C@H]1OC(=O)[C@H](C)[C@@H](O[C@H]2C[C@@](C)(OC)[C@@H](O)[C@H](C)O2)[C@H](C)[C@@H](O[C@@H]2O[C@H](C)C[C@H](N(C)C)[C@H]2O)[C@](C)(O)C[C@@H](C)C(=O)[C@H](C)[C@@H](O)[C@]1(C)O	> 100 mg/kg
CO[C@@H]1[C@@H](OC2OC(C)C(OC3CC(C)(O)C(OC(=O)CC(C)C)C(C)O3)C(N(C)C)C2O)[C@@H](CC=O)C[C@@H](C)[C@@H](O)/C=C/C=C/C[C@@H](C)OC(=O)C[C@H]1OC(C)=O (some centres undefined)	> 100 mg/kg
CC[C@H]1OC(=O)[C@H](C)[C@@H](O[C@H]2C[C@@](C)(OC)[C@@H](O)[C@H](C)O2)[C@H](C)[C@@H](O[C@@H]2O[C@H](C)C[C@H](N(C)C)[C@H]2O)[C@](C)(OC)C[C@@H](C)C(=O)[C@H](C)[C@@H](O)[C@]1(C)O	> 100 mg/kg

Problem: Quick check: ED50 on Mus musculus, item `CC[C@H]1OC(=O)[C@H](C)C(=O)[C@H](C)[C@@H](O[C@@H]2O[C@H](C)C[C@H](N(C)C)[C@H]2O)[C@](C)(OC)C[C@@H](C)C(=O)[C@H](C)[C@H]2N(NCCCc3ccnc4ccccc34)C(=O)O[C@]12C` ?
Solution: 13 mg/kg

---

- Test system: Staphylococcus aureus
- ASSAY: In vitro inhibitory activity against Staphylococcus aureus (EryRi 011GO25i)
- Type: functional
EXPERIMENTAL_ENDPOINT: MIC (µg/mL)
The reply should contain only the number, in µg/mL.

Examples with their reported MIC follow.
CC[C@H]1OC(=O)[C@H](C)C(=O)[C@H](C)[C@@H](O[C@@H]2O[C@H](C)C[C@H](N(C)C)[C@H]2O)[C@](C)(OC)C[C@@H](C)C(=O)[C@@H](C)[C@H]2N(N)C(=O)O[C@]12C 40
CC[C@H]1OC(=O)[C@H](C)C(=O)[C@H](C)[C@@H](O[C@@H]2O[C@H](C)C[C@H](N(C)C)[C@H]2O)[C@](C)(OC)C[C@@H](C)/C(=N\OCCN(C)C)[C@H](C)[C@@H](O)[C@]1(C)O 1.2
CC[C@H]1OC(=O)[C@H](C)C(=O)[C@H](C)[C@@H](O[C@@H]2O[C@H](C)C[C@H](N(C)C)[C@H]2O)[C@](C)(OC)C[C@@H](C)C(=O)[C@H](C)[C@H]2N(CCCCc3ccnc4ccc(OC)cc34)C(=O)O[C@]12C 0.08
CC[C@H]1OC(=O)[C@H](C)C(=O)[C@H](C)[C@@H](O[C@@H]2O[C@H](C)C[C@H](N(C)C)[C@H]2O)[C@](C)(OC)C[C@@H](C)/C(=N\OCCNCCN(C)C)[C@H](C)[C@@H](O)[C@]1(C)O 5

Below: the item to evaluate.
Problem: Quick check: MIC on Staphylococcus aureus, item `CC[C@H]1OC(=O)[C@H](C)C(=O)[C@H](C)[C@@H](O[C@@H]2O[C@H](C)C[C@H](N(C)C)[C@H]2O)[C@](C)(OC)C[C@@H](C)/C(=N\OCc2ccccc2)[C@H](C)[C@@H](O)[C@]1(C)O` ?
Solution: 40

---

- System: Staphylococcus aureus
- ASSAY: In vitro inhibitory activity against Staphylococcus aureus (EryRi 011GO25i)
- Type: functional
Recorded MIC for the following molecules
The reply should contain only the number, in µg/mL.

CC[C@H]1OC(=O)[C@H](C)C(=O)[C@H](C)[C@@H](O[C@@H]2O[C@H](C)C[C@H](N(C)C)[C@H]2O)[C@](C)(OC)C[C@@H](C)/C(=N\OCc2c(C)cc(C)cc2C)[C@H](C)[C@@H](O)[C@]1(C)O 0.6
CC[C@H]1OC(=O)[C@H](C)C(=O)[C@H](C)[C@@H](O[C@@H]2O[C@H](C)C[C@H](N(C)C)[C@H]2O)[C@](C)(OC)C[C@@H](C)/C(=N\O[C@@H]2CCCNC2)[C@H](C)[C@@H](O)[C@]1(C)O 2.5
CC[C@H]1OC(=O)[C@H](C)C(=O)[C@H](C)[C@@H](O[C@@H]2O[C@H](C)C[C@H](N(C)C)[C@H]2O)[C@](C)(OC)C[C@@H](C)/C(=N\OC[C@@H](N)C(=O)[O-])[C@H](C)[C@@H](O)[C@]1(C)O.[K+] 40

Problem: Quick check: MIC on Staphylococcus aureus, item `CC[C@H]1OC(=O)[C@H](C)C(=O)[C@H](C)[C@@H](O[C@@H]2O[C@H](C)C[C@H](N(C)C)[C@H]2O)[C@](C)(OC)C[C@@H](C)C(=O)[C@@H](C)[C@H]2N(NCCCc3ccnc4c(OC)cccc34)C(=O)O[C@]12C` ?
Solution: 0.15

---

- System: Staphylococcus aureus
- ASSAY: In vitro inhibitory activity against Staphylococcus aureus (EryRi 011GO25i)
- Type: functional
Define the label as MET when MIC is strictly less than 0.6 µg/mL and as NOT MET in all remaining cases.

CCCNCCO/N=C1\[C@H](C)C[C@@](C)(OC)[C@H](O[C@@H]2O[C@H](C)C[C@H](N(C)C)[C@H]2O)[C@@H](C)C(=O)[C@@H](C)C(=O)O[C@H](CC)[C@@](C)(O)[C@H](O)[C@H]1C MET
CC[C@H]1OC(=O)[C@H](C)C(=O)[C@H](C)[C@@H](O[C@@H]2O[C@H](C)C[C@H](N(C)C)[C@H]2O)[C@](C)(OC)C[C@@H](C)/C(=N\OCCN2CCOCC2)[C@H](C)[C@@H](O)[C@]1(C)O NOT MET
C#CCNCCO/N=C1\[C@H](C)C[C@@](C)(OC)[C@H](O[C@@H]2O[C@H](C)C[C@H](N(C)C)[C@H]2O)[C@@H](C)C(=O)[C@@H](C)C(=O)O[C@H](CC)[C@@](C)(O)[C@H](O)[C@H]1C NOT MET

Problem: For `CC[C@H]1OC(=O)[C@H](C)C(=O)[C@H](C)[C@@H](O[C@@H]2O[C@H](C)C[C@H](N(C)C)[C@H]2O)[C@](C)(OC)C[C@@H](C)C(=O)[C@H](C)[C@H]2N(CCCc3ccccc3)C(=O)O[C@]12C` , is the recorded MIC below the cut-off of 0.6 µg/mL?
Solution: NOT MET
